- Test system: A549 NSCLC
- test details: NCI tumour cell line growth inhibition, 48 h
Items are presented alongside their recorded TGI.
attribute measured: TGI

Oc1[nH]c2ccccc2c1N=NC(=S)N1CCCC1 = 13.6 µM
COC(=O)C1=Cc2c(OC)cc(OC)c(OC)c2[C@H](c2cc(OC)c(OC)cc2OC)C1C(=O)OC (stereo not given in full) = > 100 µM
O=[N+]([O-])c1ccc(-c2ccccc2)c([As](=O)(O)O)c1 = > 100 µM
C=C1CC(C/C=C(\C)CC2CC(=C)C(=O)O2)OC1=O (stereo not given) = > 100 µM
C/C(CN1C(=O)c2ccccc2C1=O)=N\NS(=O)(=O)c1ccc(F)cc1 = > 100 µM

###

- System: M19-MEL melanoma
- test details: NCI tumour cell line growth inhibition, 48 h
attribute measured: TGI

CO[C@@]12CC(=O)/C(=C(O)\C=C\c3ccccc3)C(=O)[C@]1(OC)Cc1ccccc1O2 = > 100 µM
C=C=[CH][Sn]([c]1ccccc1)([c]1ccccc1)[c]1ccccc1 = 3.06 µM
C=C1CC(C/C=C(\C)CC2CC(=C)C(=O)O2)OC1=O (centres undefined) = > 100 µM
C1=c2ccccc2=C2C(=C(c3ccccc3)C(c3ccccc3)=NN2c2ccccc2)S1 = > 100 µM
CCOC(=O)c1cn2c([nH]c3ccccc32)c(C#N)c1=O = > 100 µM
CCOC(=O)C1(Cc2ccc3ccccc3c2)CCCCCN1 (centres undefined) = 93.8 µM
O=C(/N=C/c1c(O)c2ccccc2oc1=O)NC1CCCCC1 = > 100 µM
COC1=CC(=O)c2ccccc2C1(C)C1=NC(C)(C)CO1 (centres undefined) = > 100 µM
NC1=NS(=O)(=O)Nc2nc(-c3cccs3)[nH]c21 = > 100 µM
Cc1cc(C)c2[s+]snc2c1 = > 100 µM
CC12OC3CC(O1)C1(C=O)C4CCC5(C)C(c6ccc(=O)oc6)CCC5(O)C4CCC1(C3)O2 (centres undefined) = 1.16 µM
CCCCCn1cnc2c1S(=O)(=O)N(C)C(NC(=O)c1ccccc1)=N2 = > 100 µM
CC(C)(C)C(=O)[CH-]C(=O)C(F)(F)C(F)(F)C(F)(F)F.CC(C)(C)C(=O)[CH-]C(=O)C(F)(F)C(F)(F)C(F)(F)F.[O-]CC1OC(O)C(O)C(O)C1O.[O-]CC1OC(O)C(O)C(O)C1O.[Ti+4] = > 100 µM
NNC(=S)N/N=C/C(Cl)=C(\Cl)C(=O)O = > 100 µM
Cc1nc(N)sc1C(=O)/C=C/c1ccc([N+](=O)[O-])cc1 = > 100 µM
O=C1C=C(Nc2ccccc2C(=O)CC(=O)C(=O)Nc2ccc(Cl)c(Cl)c2)c2ccccc2C1=O = 8.96 µM
C[C@H](O)C(=O)SC[C@H](NC(=O)CC[C@@H](N)C(=O)O)C(=O)NCC(=O)O = > 100 µM
CCCC(=O)OCC(O)CO (centres undefined) = > 5000 µM
COc1cc(C2C(Cl)C(=O)N2NC(=O)Cc2ccccc2)ccc1O (centres undefined) = > 100 µM

###

- Test system: DU-145 prostate
- test details: NCI tumour cell line growth inhibition, 48 h; in the data active = GI50 below about 0.43 µM; inactive = the rest
Classes used: True (active), False (inactive)

COc1cccc(Nc2nccc(Nc3ccc4[nH]ncc4c3)n2)c1 = False
CCCCCc1c(C)[nH]c(/C=c2\[nH]/c(=C3/C=c4ccccc4=N3)cc2OC)c1C = True
COC(=O)Nc1nc2ccc(Sc3ccccc3)cc2[nH]1 = True
C/C(=N\Nc1cccc(Cl)n1)c1ccccn1 = False
C=C=[CH][Sn]([c]1ccccc1)([c]1ccccc1)[c]1ccccc1 = False
COc1ccc(-n2cc(-c3ccc(OC)c(OC)c3)nc2SCc2ccccc2)cc1Cl = False
CON = False
N#CC[C@H](C1CCCC1)n1cc(-c2ncnc3[nH]ccc23)cn1 = False
CC[C@@]1(OC(=O)CN)C(=O)OCc2c1cc1n(c2=O)Cc2cc3c(N)c4c(cc3nc2-1)OCO4 = True
Cc1cc2c(C(C)C)c(O)c(O)c(C=O)c2c(O)c1-c1c(C)cc2c(C(C)C)c(O)c(O)c(C=O)c2c1O (tested in a mixture with another compound) = False
O=C(CC1(O)C(=O)Nc2c(Cl)ccc(Cl)c21)c1ccc(C2CC2)cc1 (stereo not given) = False
CNCCOc1nc2c3cnccc3cc(-c3cc(OC)c(OC)c(OC)c3)c2c2ccncc12 = True
O=C(Nc1ccc(S(=O)(=O)NC2CCCCCC2)cc1)C(c1ccccc1)S(=O)(=O)c1ccc(F)cc1 (stereo not given) = True
COc1ccc(C2C3=C(COC3=O)N(CCO)c3cc4c(cc32)OCCO4)cc1OC (stereo not given) = False
ClC1=C(Cl)C(Cl)=C(Cl)C1=Cc1ccc(Cl)cc1 = False
C=C1C(=O)OC2CC3(C)OC3C3OC3C3=CC(OC3=O)C12 (stereo not given) = False
CCCCCCC1N=C(N)N=C(N)N1c1ccc(Cl)cc1 (stereo not given) = False
COc1ccc(NC(=O)O[C@H]2[C@H](O[C@H]3[C@@H](O)COC(O[C@H]4C[C@H]5[C@@H]6CC=C7C[C@@H](O)CC[C@]7(C)[C@H]6CC[C@]5(C)[C@H]4[C@H](C)C(=O)CCC(C)C)[C@@H]3OC(C)=O)OC[C@@H](O)[C@@H]2O)cc1 (stereo not given in full) = True
CCN1C(=O)N(CC)C2C1NN=c1s/c(=C\c3ccccc3)c(=O)n12 (stereo not given) = True
CCN(CC)c1ccc2nc3c4ccccc4c(=NC(=O)c4ccccc4-c4c5ccc(N(CC)CC)cc5[o+]c5cc(N(CC)CC)ccc45)cc-3oc2c1 = False

Data origin, for the record: PubChem BioAssay (NCI)
